# Tested on: SARS-CoV-2 hCoV-19/Japan/TY/WK-521/2020
# assay.procedure: Combination effect confirmation test, VeroE6/TMPRSS2 cells, strain WK-521
# Format: cell-based
# condition.notes: Severe acute respiratory syndrome coronavirus 2, VeroE6/TMPRSS2, 72 h; single agent; hCoV-19/Japan/TY/WK-521/2020; […]
measured.endpoint: EC50

Enquiry: What EC50 value was documented for this molecule, CCC(CC)COC(=O)[C@H](C)N[P@](=O)(OC[C@H]1O[C@@](C#N)(c2ccc3c(N)ncnn23)[C@H](O)[C@@H]1O)Oc1ccccc1 [Remdesivir, reference compound] ?
Return: 2500 nM

====

# System: SARS-CoV-2
# assay.procedure: microbe, parasite or virus in culture
# Assay type: cell-based
# condition.notes: Severe acute respiratory syndrome coronavirus 2, 72 h; VeroE6/TMPRSS2 cells, 100 TCID50/well, 3 days; class symbols
pEC50: −log10 of the molar value.
Measured pEC50 accompanies every entry in the list below.

Look over these answered cases.
Enquiry: Could you tell me which pEC50 is on file for N#Cc1cc(Cn2c(Nc3cc4cn(CCO)nc4cc3Cl)nc(=O)n(-c3cncc4ccccc34)c2=O)ccc1F [Compound I-031] ?
Return: 5.00 to 6.00

Enquiry: Which measured pEC50 value corresponds to N#Cc1cc(Cn2c(Nc3cc4cn(C(F)F)nc4cc3Cl)nc(=O)n(-c3cncc4ccccc34)c2=O)ccc1F [Compound I-024] ?
Return: > 6.00

Enquiry: Look at this compound and give its reported pEC50. Cc1cncc(-n2c(=O)nc(Nc3cc4cn(C)nc4cc3C)n(Cc3cc(F)c(F)c(F)c3)c2=O)c1 [Compound I-004]
Return: 5.00 to 6.00

Enquiry: What value of pEC50 has been recorded for this entry: Cn1cc2cc(Nc3nc(=O)n(-c4cncc5ccccc45)c(=O)n3Cc3cc(F)c(F)c(F)c3)c(Cl)cc2n1 [Compound I-014]
Return: > 6.00

Enquiry: // pEC50 lookup, key: Cc1cncc(-n2c(=O)nc(Nc3ccc4nn(CC(F)F)cc4c3)n(Cc3ccc(F)c(C#N)c3)c2=O)c1 [Compound I-011]
Return: > 6.00

Enquiry: Which pEC50 value is on record for Cc1cc2nn(C)cc2cc1Nc1nc(=O)n(-c2cncc3ccccc23)c(=O)n1Cc1ccc(F)c(C#N)c1 [Compound I-027] ?
Return: > 6.00

Enquiry: # pEC50 lookup, item CC(=O)NCCn1cc2cc(Nc3nc(=O)n(-c4cncc5ccccc45)c(=O)n3Cc3cc(F)c(F)c(F)c3)c(Cl)cc2n1 [Compound I-033]
Return: 5.00 to 6.00

Enquiry: Would you kindly share the measured pEC50 for O=c1nc(Nc2ccc3nn(CC(F)F)cc3c2)n(Cc2cc(F)c(F)c(F)c2)c(=O)n1-c1cncc2ccccc12 [Compound I-034] ?
Return: > 6.00

Continuing:
Enquiry: Consider the compound shown here: N#Cc1cc(Cn2c(Nc3ccc4nn(CC(F)F)cc4c3)nc(=O)n(-c3cncc4ccccc34)c2=O)ccc1F [Compound I-009] What is its recorded pEC50?
Return: > 6.00

Enquiry: Returns the measured pEC50 for the input compound. Input: Cc1cncc(-n2c(=O)nc(Nc3cc4cn(C(F)F)nc4cc3Cl)n(Cc3ccc(F)c(C#N)c3)c2=O)c1 [Compound I-026]
Return: > 6.00

Enquiry: Sample Cn1cc2cc(Nc3nc(=O)n(-c4cncc5ccccc45)c(=O)n3Cc3cc(F)c(F)c(F)c3)ccc2n1 [Compound I-016] — what was its pEC50?
Return: > 6.00

Enquiry: Would you mind telling me what pEC50 value was observed for Cn1cc2cc(Nc3nc(=O)n(-c4cncc5ccccc45)c(=O)n3Cc3ccc(F)c(C#N)c3)c(Cl)cc2n1 [Compound I-015] ?
Return: > 6.00

Enquiry: Which pEC50 is reported for this compound? Cc1cncc(-n2c(=O)nc(Nc3cc4cn(C)nc4cc3F)n(Cc3cc(F)c(F)c(F)c3)c2=O)c1 [Compound I-002]
Return: > 6.00

Enquiry: Item under review: Cn1cnc(Cn2c(=O)nc(Nc3cc4cn(C)nc4cc3Cl)n(Cc3cc(F)c(F)c(F)c3)c2=O)n1 [Compound I-021] . Reported pEC50?
Return: > 6.00
